substrate: BHET; settings: 120 h
reported_metric: plate clearing

Worked examples, 4 proteins total:
protein	plate clearing
unnamed (protein) MSSDKRLLFTLLHRTLLACALTFSAALPACGEEDPKEVTDSSSDDDDETPVDGDTTGDDDPEPMTMKDAGKSSVKDAGKPPPTPAVDAGSTAPKDKDSGTVGGIDAGPAKDAGTVVTPPTTAGDALVRGDAPTEKSASAKGPYAVKTYTSGYPDLPGYLDSTIHYPEGAQPPFAAVVIVPGFVSAQSSIQAWGPFFASHGIVTMTIGTNTPVDQPPMREAALLDALKTVKSENTREGSPLKDKLDLSRLAGMGWSMGGGGALLLGEHNPELKAVIALCPWNPGYSYAKIKMPTLFLAAQADTLAGGQSQGFYSSIPNSVPKILYEIAGADHWHNNDPANLQGAVGRYGLAWLKVFLEGDERYRDLLKVKGPSSSDWQSNVQ	not clears the plate
unnamed (protein) MRPTRCPSRATSPLRSRSRVLAVLIVMATTLASTLLTVSVTPAATAARQSQSRSVAGSSSEHASVRATIPDPTTASLEATNGPLAIATYTVPQPSGYGSGTITYPTARGSYPAVVLMPGYQGTQQNLQWVAPRLASWGFIVINVGTKTLGDDPASRGRQISAAGTQLLSLGSVAGNPLYGKMNGTLGAAGHSMGGGGVMAALREDSRFTAGMPLAPYYPNQNFSGVTDPTFFLTCKSDPVAHGNTYALPWYNSMSQAEKLYIEVPGDHLCPMTGYGNKAKQGKWIVSFFSRWLYGDTRFSPFLCGAAREADKNNPSLVTRWQDTCPF	not clears the plate
unnamed (protein) MPMYKLNHVFFAVALAACSALGCAEGSDGSTVSTGGDGVGGGAGETDLPAGAGGTAGVGGAAGSVDPSDIAGTGGSAGTAGETVAGSSGVPVAGTGGIPVAGSGGTGIVDSGGIGGGGAGGTLENNNFIRGPAPTAQSASQAGPYDVQSTTQGLRDPAEYGTQTLWYPTDAEPPFAAIAIVPGFVSPEGSIANWGPFLASHGIVVLTIGTNTGGDLPEVRSAALLAALDTIKAEHTRQGSPIEGKIDTGKLAVGGWSMGGGGTLLTITAHPELKAGLGICPWYMNAFAFAGNTVPVIMFAGTMDVLAGGMSQGFYDAIPASTPKMLFEIAGADHFYANDPLNVANPFTVQVGLYGLSWLKVFLEGDDRYRQFLLNPPQNASDFRTTVK	not clears the plate
unnamed (protein) MTPTLCRPLAAVLTSAAFAALTAVSASALAQTPQEPTEASLNATAGPFSVATESVRAPRGFGGGTIYYPTAAGRYGVVAISPGFTATQSSIAWLGRRMASHGLVVITMNTNSTLDQPASRANQLMAALNHVVSASGAAVQSRADGTRRAVAGHSMGGGGALIAARDNATLRAALPLTPWNTTTDFSGVRVPTLIVGADGDGVASVTRHARPFYASLPNATAKAYGELNSASHFTPNSTNTPIGRYGVTWMKRFVDADTRYSPFLCGAAHLAYATPAVFDRYQNNCPY	not clears the plate

# get_value(readout='plate clearing', item= unnamed (protein) MNTSILEKMAVGASALLFSFSAFSFTPDPTPDPDPDPGPGPCQSDCDFTRGPNPTSSYLEANSGPYSVSTISVSRSVSGFGGGTIHYPTNTTGTMGAVAIVPGFLAGESSISWWGPRLASHGFVVITIATNSGFDQPDSRETQLGRALDYVISQSNSGSSPISGMVDSTRVGAMGWSMGGGGTLRLASGTRLSAAIPLAPWHSGSNNFNQIDTPTLIIACENDSTAPVGSHASPFYNRIPTSTDKAYLEINNGSHSCANGGGSNGGLLGKYGVSWMKRFIDQDTRYSQFLCGPNHAANSAISEYRETCNY )
not clears the plate

Entry to check: unnamed (protein) MRKLLRRGPMRLLAVGLVIAVGVLATACDWRGPEPSDQLLTGTGPFGIGTISVPASAGFGGGTIYYPTGNPGPFAVVSFSPGFLEQSGAFPGWGNKLASHGFVAILFNTSNTGEFPDARSTEQRQALTYVINQGQNPSSPIFGLVDGNRTAVMGHSMGGGASLISAQADHTIDAVIPVAPWNGGTNFSGITSPTLVVACQSDSTAPVNSHASPFYNSIPSTTKKEYLSVAGGDHFCANDPSLVGGGNIGKYAVAFLKRWLDTDTRYDPWTCGASKATAGSVFNEVRSTCPW
not clears the plate

Entry to check: unnamed (protein) MKTSNSRRRRLAVAAGALLLAAAAHAQTNPYQKGPDPTSASLEATAGPFAVSTTSVSSSASGFGGGTIYYPTTAGSYGAIAISPGFTATQSSIAWLGRRLASHGFVVITIDTNSTLDQPASRATQLMAALNYVVNSSSSTVRSRVDANRLGVAGHSMGGGGTLIAARDNPTLKAAVPLTPWNTTKNFSSVTVPTLIIGAENDTVAPVSSHAIPFYNSLPSSTDKAYAELNGASHFAPNSSNTPIGKYSVAWMKRFVDNDTRYSPFLCGAPHTAYATSSAVSDYRSTCPY
not clears the plate

Entry to check: unnamed (protein) MIKDFLLSRVVIVAGTLIFSMPTLAEITVSETTVVIPKEALPVPTLSNCITDSAITADALSDTRDNGPFTVSTKRVPRQSANGFGGGTIHYPTNASGCGLLGGIAVVPGYVSYESSIKWWGPRLASWGFVVITINTNHISDNPDSRATQLNAALDHLLLDSTVANMVDRDRLGVIGWSMGGGGALRLATDRSTVRAIIAQTPYHDTSYPTMDTPALFIACENDRIAPNKKYTNVFYNNATGPKMKVEVSNGSHFCASHGFHEILLSKPGIAWMQRYINGDTRFDQFLCSSENYNSSPRISSYNYKNCL
not clears the plate
